# PROTOCOL: yeast display, Sf9 membrane polyspecificity reagent, FACS + sequencing; frameworks hold sequencing errors
REPORTED PROPERTY: polyreactivity (PSR sort gate)

Below: 5 sequences and their reported polyreactivity (PSR sort gate).
# SEQUENCE CHAIN, REPORTED PROPERTY, VAL
data = [
    ("QVQLVESGGGFFQAGGSLRLSCAASGSTFVYNAMGWYRQAPGKERELVAAISRNGGRTYYADSVKGRFTISRDNAKNTVYFQMNSLKPEDTAVYYCAADYRVQLRKEYDYWGQGTQVTVSS", "polyreactivity (PSR sort gate)", "high polyreactivity"),
    ("QVQLGESGGGLVQAGGSLRLICAASGSTFWTNDMGWYRQAPGKERELVAPISQSAGDTYYADSVKARFTISRDNSKNTFYLQMISLKPEDTAVYYCAADLVFYPFTWDGYYYWGQGTQVTVSS", "polyreactivity (PSR sort gate)", "low polyreactivity"),
    ("QVQLVESGGGLVQAGGSLRLSCAASGRTVYANAMGWYRQAPGKERELVAAISTGGDGTYYADSVKGRFTISRDNAKNPVYLQMNSQKPEDTAVYYCAVRHRASGMLYDYWGQGTQVTVSS", "polyreactivity (PSR sort gate)", "low polyreactivity"),
    ("QVQLVESGGGLVQEGGSLRLSCAASGRTFYINGLGWYRQAPGKEREFVASITWRGGRTYYADSVKGRFTISRDNAKNTVYLQMNSLKPEDTAVYYCNAVGLGGRATSRWYTHYYWGQGTQVTVSS", "polyreactivity (PSR sort gate)", "high polyreactivity"),
    ("QVQHVESGGGLVQAGGSLRLSCAASGFTFRYNAMGWYRQAPGKKGSWVAAISRTGGSTYYADSVKGRFTISRDNAKNTVYLQMNSLKPEDTAVYYCARAPEGTGGKYGYWGQGTQVTVSS", "polyreactivity (PSR sort gate)", "high polyreactivity"),
]

Q) Give recorded polyreactivity (PSR sort gate). QVQLVESGGGLVQAGGSLRLSCAASGSTFQRYAMGWYRQAPGKERELVAAINKSGGTTYYADSVKGRFTISRDNAKNTVYLLMNSLKPEDTAVYYCATDNPVVYQPGNMDYWGQGTQVTVSS
A) low polyreactivity

Q) // Input: QVQLVESGGGLVQAGGSLRISCAASGIILSDNAMGWYRQAPGKEREFVAAITGSGGSTYYADSVKGRFTISRDNAKNTVYLQMNSLKPEDTAVYYCAADGPYGYYYGHYGYWGQGTQVTVSS . Output its polyreactivity (PSR sort gate) only.
A) low polyreactivity

Q) Note polyreactivity (PSR sort gate) for the sequence shown: QVQLVESGGGLVQAGGSLRLSCAASGRIIRSNVMGWYRQAPGKERDLVAGISRSGGSTYYADSVKGRFTISRDNAKNTVYLKMNSLKPEDTAVYYCNAGWWYLGSPFDRDYWGQGTQVTVSS
A) high polyreactivity

Q) Give recorded polyreactivity (PSR sort gate). QVQLVESGGGLVQAGGSLRLSCAASGSTFAYNAMGWYRQAPGKERELVAAISSSGTSTYYADSVKGRFTISRDYAKNTVYLQMNSLKTEDTAVYYCAARSAILKSGYLMDYWGQGTQVTVSS
A) low polyreactivity

Q) Return value of polyreactivity (PSR sort gate) for input QVQLVESGGGLVQAGGSIRISCEASGITFGRNPMGCDRQAPGKERELVDAIDSGGNTYADSVKGRFTISRDNAKNTFYLQMNRLIPEDTAVYYCAVDGGEFSSYGYWGQGTQVTVSS , no commentary.
A) low polyreactivity

Q) Give the reported polyreactivity (PSR sort gate) for this sequence. QVQLVESGGGLVQAGGSLRLSCAASGSIFGLYAMGWYRQAPGKERELVAAISTSSGRTYYADSVKGRFTISRDNAKNTVYLQMNSLKPEDTAVYYCNARVYVTSGFRYDYWGQGTQVTVSS
A) high polyreactivity
